Test: Chemical stability of the compound assessed as compound remaining at pH 3.5 after 2 hrs
Type: physicochemical
Conditions: buffer, read-out: Stability
# remaining at 2 h listing for each entry below
assay_endpoint: remaining at 2 h

[
  {
    "compound": "C[C@@H](C(=O)O)c1ccc(OS(=O)(=O)C(F)(F)F)cc1",
    "assay_endpoint": "remaining at 2 h",
    "result": "> 99%"
  },
  {
    "compound": "C[C@@H](C(=O)NS(C)(=O)=O)c1ccc(OS(=O)(=O)C(F)(F)F)cc1 [LADARIXIN]",
    "assay_endpoint": "remaining at 2 h",
    "result": "> 99%"
  }
]

----------
Assay: Oral bioavailability in Sprague-Dawley rat at 14 mg/kg
Assay type: ADME, organism-based
Conditions: in vivo

[
  {
    "compound": "C[C@@H](C(=O)NS(C)(=O)=O)c1ccc(OS(=O)(=O)C(F)(F)F)cc1 [LADARIXIN]",
    "bioavailability [%]": 100
  }
]

----------
# half-life listing for each entry below
Assay: Elimination half life in Sprague-Dawley rat at 14 mg/kg, iv
Assay type: ADME, organism-based
Set-up: dose 14 mg/kg, route intravenous
Settings: in vivo, read-out: beta t1/2 (converted)
assay_endpoint: half-life (h)

[
  {
    "given_smiles": "C[C@@H](C(=O)NS(C)(=O)=O)c1ccc(OS(=O)(=O)C(F)(F)F)cc1",
    "numeric_readout": 19
  },
  {
    "given_smiles": "CC(C)Cc1ccc([C@@H](C)C(=O)NS(C)(=O)=O)cc1",
    "numeric_readout": 0.75
  }
]

----------
Molecular target: Interleukin-8 receptors, CXCR1/CXCR2 (Homo sapiens) (UniProt P25025+P25024)
Assay: Inhibition of CXCR1/2 in human polymorphonucleate cells assessed as inhibition of CXCL8-induced chemotaxis at 10^-8 M incubated for 15 mins prior to CXCL8-induction measured after 45 mins

[
  {
    "given_smiles": "CONC(=O)[C@H](C)c1ccc(OS(=O)(=O)C(F)(F)F)cc1",
    "endpoint_unit": "%",
    "inhibition": 56
  },
  {
    "given_smiles": "C[C@@H](C(=O)Nc1ccccn1)c1ccc(OS(=O)(=O)C(F)(F)F)cc1",
    "endpoint_unit": "%",
    "inhibition": 43
  },
  {
    "given_smiles": "C[C@@H](C(=O)NS(=O)(=O)C1CC1)c1ccc(OS(=O)(=O)C(F)(F)F)cc1",
    "endpoint_unit": "%",
    "inhibition": 44
  },
  {
    "given_smiles": "Cc1csc(NC(=O)[C@H](C)c2ccc(OS(=O)(=O)C(F)(F)F)cc2)n1",
    "endpoint_unit": "%",
    "inhibition": 58
  },
  {
    "given_smiles": "C[C@@H](C(=O)N(C)O)c1ccc(OS(=O)(=O)C(F)(F)F)cc1",
    "endpoint_unit": "%",
    "inhibition": 47
  }
]

----------
Molecular target: UniProt:P05177
Sequence (P05177 whole entry): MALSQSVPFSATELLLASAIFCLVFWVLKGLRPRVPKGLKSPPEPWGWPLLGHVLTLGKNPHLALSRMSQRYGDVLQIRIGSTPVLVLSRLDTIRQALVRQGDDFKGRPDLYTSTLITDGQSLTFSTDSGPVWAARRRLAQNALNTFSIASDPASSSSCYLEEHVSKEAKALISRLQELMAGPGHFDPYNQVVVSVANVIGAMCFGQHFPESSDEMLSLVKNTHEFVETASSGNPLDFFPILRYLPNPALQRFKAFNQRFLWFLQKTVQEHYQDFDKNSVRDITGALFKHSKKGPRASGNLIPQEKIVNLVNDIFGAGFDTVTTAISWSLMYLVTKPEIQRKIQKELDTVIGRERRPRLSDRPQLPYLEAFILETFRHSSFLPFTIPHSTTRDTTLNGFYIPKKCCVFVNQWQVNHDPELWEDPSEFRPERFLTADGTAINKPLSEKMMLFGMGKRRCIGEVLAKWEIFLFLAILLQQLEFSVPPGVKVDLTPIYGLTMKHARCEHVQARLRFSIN
Assay: Inhibition of CYP1A2 using CEC as substrate at 10 uM
Assay type: ADME
Settings: probe CEC

[
  {
    "compound": "C[C@@H](C(=O)O)c1ccc(OS(=O)(=O)C(F)(F)F)cc1",
    "endpoint_unit": "%",
    "operator_symbol": "<",
    "inhibition at 10 µM": 5
  },
  {
    "compound": "C[C@@H](C(=O)Nc1nncs1)c1ccc(OS(=O)(=O)C(F)(F)F)cc1",
    "endpoint_unit": "%",
    "operator_symbol": "<",
    "inhibition at 10 µM": 5
  },
  {
    "compound": "C[C@@H](C(=O)Nc1nnc[nH]1)c1ccc(OS(=O)(=O)C(F)(F)F)cc1",
    "endpoint_unit": "%",
    "operator_symbol": "<",
    "inhibition at 10 µM": 5
  },
  {
    "compound": "C[C@@H](C(=O)Nc1nccs1)c1ccc(OS(=O)(=O)C(F)(F)F)cc1",
    "endpoint_unit": "%",
    "operator_symbol": "=",
    "inhibition at 10 µM": 36
  },
  {
    "compound": "C[C@@H](C(=O)Nc1ccccn1)c1ccc(OS(=O)(=O)C(F)(F)F)cc1",
    "endpoint_unit": "%",
    "operator_symbol": "<",
    "inhibition at 10 µM": 5
  },
  {
    "compound": "C[C@@H](C(=O)Nc1nc(C(F)(F)F)co1)c1ccc(OS(=O)(=O)C(F)(F)F)cc1",
    "endpoint_unit": "%",
    "operator_symbol": "<",
    "inhibition at 10 µM": 5
  },
  {
    "compound": "Cc1csc(NC(=O)[C@H](C)c2ccc(OS(=O)(=O)C(F)(F)F)cc2)n1",
    "endpoint_unit": "%",
    "operator_symbol": "=",
    "inhibition at 10 µM": 16
  },
  {
    "compound": "C[C@@H](C(=O)Nc1ncco1)c1ccc(OS(=O)(=O)C(F)(F)F)cc1",
    "endpoint_unit": "%",
    "operator_symbol": "=",
    "inhibition at 10 µM": 15
  },
  {
    "compound": "C[C@@H](C(=O)NS(C)(=O)=O)c1ccc(OS(=O)(=O)C(F)(F)F)cc1 [LADARIXIN]",
    "endpoint_unit": "%",
    "operator_symbol": "<",
    "inhibition at 10 µM": 5
  },
  {
    "compound": "C[C@@H](C(=O)Nc1nc(C(F)(F)F)cs1)c1ccc(OS(=O)(=O)C(F)(F)F)cc1",
    "endpoint_unit": "%",
    "operator_symbol": "=",
    "inhibition at 10 µM": 14
  }
]

----------
Assay: Clearance in Sprague-Dawley rat at 14 mg/kg, iv
Assay type: ADME, organism-based
Set-up: dose 14 mg/kg, route intravenous
Settings: in vivo

[
  {
    "given_smiles": "C[C@@H](C(=O)NS(C)(=O)=O)c1ccc(OS(=O)(=O)C(F)(F)F)cc1",
    "clearance": "0.1 mL/min/kg"
  }
]

----------
Assay: Metabolic stability in rat liver microsomes assessed as compound remaining at 1 uM preincubated for 10 mins measured after 30 mins
Format: ADME, Microsome
Details: read-out: Stability
assay_endpoint: remaining at 0.5 h, 1 µM

[
  {
    "given_smiles": "C[C@@H](C(=O)N(C)O)c1ccc(OS(=O)(=O)C(F)(F)F)cc1",
    "assay_endpoint": "remaining at 0.5 h, 1 µM",
    "result": "75%"
  },
  {
    "given_smiles": "CC(C)ONC(=O)[C@H](C)c1ccc(OS(=O)(=O)C(F)(F)F)cc1",
    "assay_endpoint": "remaining at 0.5 h, 1 µM",
    "result": "75%"
  },
  {
    "given_smiles": "CC(C)NC(=O)[C@H](C)c1ccc(OS(=O)(=O)C(F)(F)F)cc1",
    "assay_endpoint": "remaining at 0.5 h, 1 µM",
    "result": "75%"
  },
  {
    "given_smiles": "C[C@@H](C(=O)NS(C)(=O)=O)c1ccc(OS(=O)(=O)C(F)(F)F)cc1",
    "assay_endpoint": "remaining at 0.5 h, 1 µM",
    "result": "100%"
  },
  {
    "given_smiles": "C[C@@H](C(=O)NO)c1ccc(OS(=O)(=O)C(F)(F)F)cc1",
    "assay_endpoint": "remaining at 0.5 h, 1 µM",
    "result": "87%"
  },
  {
    "given_smiles": "CONC(=O)[C@H](C)c1ccc(OS(=O)(=O)C(F)(F)F)cc1",
    "assay_endpoint": "remaining at 0.5 h, 1 µM",
    "result": "65%"
  },
  {
    "given_smiles": "C[C@@H](C(N)=O)c1ccc(OS(=O)(=O)C(F)(F)F)cc1",
    "assay_endpoint": "remaining at 0.5 h, 1 µM",
    "result": "80%"
  }
]

----------
# pKa listing for each entry below
Assay: Dissociation constant, pKa of the compound
Type: physicochemical
assay_endpoint: pKa

[
  {
    "molecule": "C[C@@H](C(=O)O)c1ccc(OS(=O)(=O)C(F)(F)F)cc1",
    "assay_endpoint": "pKa",
    "result": 4
  },
  {
    "molecule": "C[C@@H](C(=O)NS(C)(=O)=O)c1ccc(OS(=O)(=O)C(F)(F)F)cc1 [LADARIXIN]",
    "assay_endpoint": "pKa",
    "result": 4.4
  }
]

----------
Biological target: Interleukin-8 receptors, CXCR1/CXCR2 (Homo sapiens) (UniProt P25025+P25024)
Test: Inhibition of CXCR1/2 in human polymorphonucleate cells assessed as inhibition of CXCL8-induced chemotaxis at 10^-8 M incubated for 15 mins prior to CXCL8-induction measured after 45 mins
# inhibition listing for each entry below
assay_endpoint: inhibition

[
  {
    "compound": "C[C@@H](C(=O)Nc1nccs1)c1ccc(OS(=O)(=O)C(F)(F)F)cc1",
    "assay_endpoint": "inhibition",
    "result": "56%"
  },
  {
    "compound": "C[C@@H](C(=O)O)c1ccc(OS(=O)(=O)C(F)(F)F)cc1",
    "assay_endpoint": "inhibition",
    "result": "62%"
  },
  {
    "compound": "C[C@@H](C(=O)Nc1nnc[nH]1)c1ccc(OS(=O)(=O)C(F)(F)F)cc1",
    "assay_endpoint": "inhibition",
    "result": "44%"
  },
  {
    "compound": "CC(C)NC(=O)[C@H](C)c1ccc(OS(=O)(=O)C(F)(F)F)cc1",
    "assay_endpoint": "inhibition",
    "result": "58%"
  },
  {
    "compound": "C[C@@H](C(=O)Nc1nc(C(F)(F)F)co1)c1ccc(OS(=O)(=O)C(F)(F)F)cc1",
    "assay_endpoint": "inhibition",
    "result": "60%"
  },
  {
    "compound": "C[C@@H](C(=O)NOCC1CC1)c1ccc(OS(=O)(=O)C(F)(F)F)cc1",
    "assay_endpoint": "inhibition",
    "result": "40%"
  },
  {
    "compound": "C[C@@H](C(N)=O)c1ccc(OS(=O)(=O)C(F)(F)F)cc1",
    "assay_endpoint": "inhibition",
    "result": "58%"
  },
  {
    "compound": "C[C@@H](C(=O)NS(C)(=O)=O)c1ccc(OS(=O)(=O)C(F)(F)F)cc1 [LADARIXIN]",
    "assay_endpoint": "inhibition",
    "result": "67%"
  },
  {
    "compound": "C[C@@H](C(=O)Nc1nnco1)c1ccc(OS(=O)(=O)C(F)(F)F)cc1",
    "assay_endpoint": "inhibition",
    "result": "44%"
  }
]
